Cited source for all entries: paper PMC4015918

Ki: recorded values
# MEASURED TARGET: UniProtKB Q5U3Y7
# Sequence (Q5U3Y7 whole entry): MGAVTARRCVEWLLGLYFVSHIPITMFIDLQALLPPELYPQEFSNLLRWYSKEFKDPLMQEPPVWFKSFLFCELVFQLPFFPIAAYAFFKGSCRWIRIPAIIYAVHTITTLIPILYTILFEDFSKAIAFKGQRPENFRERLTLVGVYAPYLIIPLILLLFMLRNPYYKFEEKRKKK
All answers are understood in nM, so give the number only.

| MOLECULE | Ki [nM] |
| --- | --- |
| COc1ccc(C)cc1NC(=O)OC1CC2CCCC(C1)N2CCCCCCCCCCN[C@@H](C)C(=O)N[C@H](C(=O)N1CCC[C@H]1C(=O)N[C@@H]1CCCc2ccccc21)C(C)(C)C (some centres unmarked) | 22.6 |

Now examine the next entry.
Prompt line: Find the measured Ki: item COc1ccc(C)cc1NC(=O)OC1CC2CCCC(C1)N2CCCCCCCCCCN (centres unmarked) [SW43, reference compound] , target or system UniProtKB Q5U3Y7.
Response line: 7.1

* * *

Reported pKi, sigma-1 receptor (Cavia porcellus).
Answer as the number alone; pKi is minus log10 of concentration in mol/L.

Prompt line: Find the measured pKi: item COc1ccc(C)cc1NC(=O)OC1CC2CCCC(C1)N2CCCCCCCCCCN[C@@H](C)C(=O)N[C@H](C(=O)N1CCC[C@H]1C(=O)N[C@@H]1CCCc2ccccc21)C(C)(C)C (some centres unmarked) , target or system sigma-1 receptor (Cavia porcellus).
Response line: 5.24

Prompt line: Find the measured pKi: item COc1ccc(C)cc1NC(=O)OC1CC2CCCC(C1)N2CCCCCCCCCCN (centres unmarked) [SW43, reference compound] , target or system sigma-1 receptor (Cavia porcellus).
Response line: 6.87
